EC50 values by entry
molecular target: RIPK1 (recombinant GST-RIPK1 kinase domain, residues 1-327) (Homo sapiens (Human), UniProt Q13546); assay: RIPK1-ADP-Glo Enzymatic Assay; assay type: biochemical; conditions: ADP-Glo; 25 nM GST-RIPK1, 300 μM ATP; assay lower limit ~25 nM; read-out: RIPK1 V0 Ec50
Sequence (Q13546 1-327): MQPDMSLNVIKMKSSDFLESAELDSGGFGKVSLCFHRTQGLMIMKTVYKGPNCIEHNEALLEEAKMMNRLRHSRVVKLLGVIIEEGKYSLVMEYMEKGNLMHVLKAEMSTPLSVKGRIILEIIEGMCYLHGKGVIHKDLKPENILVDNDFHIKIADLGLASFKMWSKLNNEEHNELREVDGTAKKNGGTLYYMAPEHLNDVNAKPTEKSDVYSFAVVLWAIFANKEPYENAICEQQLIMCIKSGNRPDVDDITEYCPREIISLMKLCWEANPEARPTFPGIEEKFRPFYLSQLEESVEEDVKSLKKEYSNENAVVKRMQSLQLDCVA
Where a name gives a salt, the structure may show the parent alone.
value_kind: EC50

[
  {
    "compound": "O=C1N2[C@@H](CC[C@H]2c2ccccc2)OC12CN(c1ccnc3c(F)cnn13)C2 [Example 4.96, TFA salt]",
    "measured_value": "< 25 nM"
  },
  {
    "compound": "COc1ccc(F)c(C(=O)N2CCC3(CC2)O[C@@H]2CC[C@@H](c4cccc(F)c4)N2C3=O)c1",
    "measured_value": "< 25 nM"
  },
  {
    "compound": "N#Cc1cnc(N2CC3(C2)O[C@@H]2CC[C@@H](c4ccccc4F)N2C3=O)nc1",
    "measured_value": "537 nM"
  },
  {
    "compound": "CC1CC2(CCN1c1ccnc3c(F)cnn13)O[C@@H]1CC[C@@H](c3ccccc3)N1C2=O (stereo partly drawn) [Example 4.225]",
    "measured_value": "31.8 nM"
  },
  {
    "compound": "Cc1nc(N2CCC3(CC2)O[C@@H]2CC[C@@H](c4cc(F)cc(F)c4)N2C3=O)ncc1F",
    "measured_value": "53.4 nM"
  },
  {
    "compound": "O=C(c1c(F)cc(F)cc1F)N1CCC2(CC1)O[C@@H]1CC[C@@H](c3cc(F)cc(F)c3)N1C2=O",
    "measured_value": "< 25 nM"
  },
  {
    "compound": "O=C1N2[C@@H](CC[C@H]2c2ccccc2)OC12CCN(c1csc(C(F)F)c1)CC2",
    "measured_value": "132 nM"
  },
  {
    "compound": "N#Cc1cc(N2CCC3(CC2)O[C@@H]2CC[C@@H](c4cc(F)cc(F)c4)N2C3=O)ncn1",
    "measured_value": "< 25 nM"
  },
  {
    "compound": "NC(=O)c1ccc(N2CCC3(CC2)O[C@@H]2CC[C@@H](c4ccccc4)N2C3=O)n2ncnc12",
    "measured_value": "< 25 nM"
  },
  {
    "compound": "O=C(c1ccccc1)N1CCC2(O[C@@H]3CC[C@@H](c4ccccc4)N3C2=O)C(F)C1 (single isomer, unassigned) [Example 2.3]",
    "measured_value": "< 25 nM"
  },
  {
    "compound": "O=C1N2[C@@H](CC[C@H]2c2cc(F)cc(F)c2)OC12CCN(c1ccnc(C(F)F)n1)CC2",
    "measured_value": "< 25 nM"
  },
  {
    "compound": "O=C1N2[C@@H](CC[C@H]2c2ccccc2)OC12CCN(c1ccc(C3COC3)c3ccnn13)CC2",
    "measured_value": "27.6 nM"
  },
  {
    "compound": "O=C1N2[C@@H](CC[C@H]2c2ccccc2F)OC12CN(Cc1ccccc1)C2",
    "measured_value": "103 nM"
  },
  {
    "compound": "N#Cc1cncc([C@@H]2CC[C@H]3SC4(CCN(C(=O)c5ccccc5)CC4)C(=O)N32)c1",
    "measured_value": "108 nM"
  },
  {
    "compound": "COc1cccc(C(=O)N2CCC3(CC2)O[C@@H]2CC[C@@H](c4cccc(F)c4)N2C3=O)c1",
    "measured_value": "< 25 nM"
  }
]
